B1: TMEM192 (parent)
chain: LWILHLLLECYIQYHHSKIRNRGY

- Variants of: B1
- Procedure summary: protein stability index of a GFP-peptide fusion (GPS, HEK-293T) (PSI 1-6); higher = more stable;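 further: lentivirally expressed fusions sorted by FACS into six bins by GFP to DsRed ratio, PSI derived from sequencing read proportions per bin multiplied by bin number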
- Condition summary: c terminus: a fixed tail appended
Assay endpoint: protein stability index
Returns: the value as a bare number; no unit string appended.

Look over these answered cases.
1. W2V
3.84
2. Y24G
3.91
3. H5I
2.77

Request: Identify the reported protein stability index for the following entry. `E9P`
Result: 3.73

Request: Tell me measured protein stability index for `R22D` please.
Result: 3.49

Request: Given `L1A` , respond with its protein stability index.
Result: 3.09

Request: Let me know recorded protein stability index for `H16D` , thanks.
Result: 1.47

Request: Tell me its protein stability index given `R20D` as the entry.
Result: 2.8
